Target: T1, ARHGAP21, Q5T5U3
T1 sequence (Q5T5U3 45-169, limits assumed, looked up): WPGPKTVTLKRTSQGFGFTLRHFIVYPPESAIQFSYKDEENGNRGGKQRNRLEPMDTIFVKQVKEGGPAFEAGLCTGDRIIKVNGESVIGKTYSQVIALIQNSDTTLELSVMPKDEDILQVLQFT
Assay: holdup assay
Set-up: key: below the threshold = too weak to quantify, mostly under pKd 3.1 to 4
Conditions: plain residues with an end cap or a label only (N-terminal biotin on a linker: ado-ado)
Assignment: determine reported pKd for the given binders.
The reply should be a number, written without any unit.

Data point: SAGADSETHC [SLCO1B1, Q9Y6L6] ; pKd = 4.02

Data point: LLQEEWETVM [PTH1R, Q03431] ; pKd = 4.11

Data point: PSVYSRSQYV [CLDN8, P56748] ; pKd = 4.12

Data point: PLPPEEESWV [GAS2L2, Q8NHY3] ; pKd = 4.15
